Test system: P. phaseolicola (GSPB 2828)
Test: Agar diffusion method, zone of inhibition
Assay type: cell-based, Pseudomonas phaseolicola
Conditions: Pseudomonas, 24 h, read-out: Diameter of zone inhibition

MOLECULE | zone of inhibition at 10 µg/mL (mm)
CC(=O)C1=C(C)N2NC(C)(c3ccccc3O)N(C(Cc3c[nH]c4ccccc34)C(=O)O)C2=NC1c1ccc(Cl)cc1 (stereo not shown) [Compound 2d] | 12
CC(C(=O)O)N1C2=NC(c3ccc(Cl)cc3)C3=C(CC(C)(C)CC3=O)N2NC1(C)c1ccccc1O (stereo not shown) [Compound 7] | 19
N#Cc1c(-c2ccc(Cl)cc2)nc2n(c1=O)NC(c1ccccc1O)N2C(Cc1c[nH]c2ccccc12)C(=O)O (stereo not shown) [Compound 9c] | 10
CC(=O)C1=C(C)N2NC(c3ccccc3O)N(C(Cc3c[nH]c4ccccc34)C(=O)O)C2=NC1c1ccc(Cl)cc1 (stereo not shown) [Compound 2c] | 11
